Listed compounds paired with reported inhibition at 48 h, 20 µM
Procedure details: Cytotoxicity against human HEK293 cells assessed as cell growth inhibition at 20 uM measured at 48 hrs bt MTT assay relative to control
Format: toxicity, cell-based
Lab book: enter the figure in %, no units written.

For orientation, consider the following solved cases.
Entry under review: "Cc1ccccc1N(C)C(=O)c1ccc(-c2ccc(OS(N)(=O)=O)cc2)o1" . Reported inhibition at 48 h, 20 µM?
11.7

Form field: reported inhibition at 48 h, 20 µM of "Cc1ccccc1N(C)C(=O)c1ccc(-c2ccc(O)c(Cl)c2)o1"
55

Which inhibition at 48 h, 20 µM is listed for "Cc1ccccc1N(C)C(=O)c1ccc(-c2ccc(OS(N)(=O)=O)cc2Cl)o1" ?
11.7

---
Look at this compound and give its reported inhibition at 48 h, 20 µM. "Cc1ccccc1N(C)C(=O)c1ccc(-c2ccc(OS(N)(=O)=O)c(Cl)c2)o1"
55

* * *

Tested system: UniProt P14061
Sequence (P14061 whole entry): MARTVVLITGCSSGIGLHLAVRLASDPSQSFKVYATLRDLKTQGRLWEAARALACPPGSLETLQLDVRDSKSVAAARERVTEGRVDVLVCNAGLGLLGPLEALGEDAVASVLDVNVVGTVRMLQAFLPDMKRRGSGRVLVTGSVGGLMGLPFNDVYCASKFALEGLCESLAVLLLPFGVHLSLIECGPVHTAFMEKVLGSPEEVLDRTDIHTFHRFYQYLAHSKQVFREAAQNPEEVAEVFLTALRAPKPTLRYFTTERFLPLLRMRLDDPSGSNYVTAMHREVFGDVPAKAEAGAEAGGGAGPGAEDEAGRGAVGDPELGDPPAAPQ
Procedure details: Inhibition of 17beta-HSD1 in human T47D cells using [3H]E1S as substrate measured after 24 hrs by HPLC analysis
Type: cell-based
Readout kind: IC50
# output: number + unit

Requested field: IC50. Item: "Cc1cc(-c2ccc(C(=O)N(C)c3ccccc3C)o2)ccc1O"
8.6 nM

New cases:
GET /values?readout=IC50&item= "Cc1cccc(F)c1N(C)C(=O)c1ccc(-c2ccc(O)cc2)o1"
120 nM

# get_value(readout='IC50', item= "Cc1cccnc1N(C)C(=O)c1ccc(-c2ccc(O)cc2)o1" )
1100 nM

Entry "Cc1ccccc1N(C)C(=O)c1coc(-c2ccc(O)cc2)n1" has what IC50?
110 nM

Can you look up the measured IC50 of "Cc1ccccc1N(C)C(=O)c1nnc(-c2ccc(O)cc2)o1" for me?
320 nM

* * *

Tested system: UniProt:P37059
Sequence (P37059 whole entry): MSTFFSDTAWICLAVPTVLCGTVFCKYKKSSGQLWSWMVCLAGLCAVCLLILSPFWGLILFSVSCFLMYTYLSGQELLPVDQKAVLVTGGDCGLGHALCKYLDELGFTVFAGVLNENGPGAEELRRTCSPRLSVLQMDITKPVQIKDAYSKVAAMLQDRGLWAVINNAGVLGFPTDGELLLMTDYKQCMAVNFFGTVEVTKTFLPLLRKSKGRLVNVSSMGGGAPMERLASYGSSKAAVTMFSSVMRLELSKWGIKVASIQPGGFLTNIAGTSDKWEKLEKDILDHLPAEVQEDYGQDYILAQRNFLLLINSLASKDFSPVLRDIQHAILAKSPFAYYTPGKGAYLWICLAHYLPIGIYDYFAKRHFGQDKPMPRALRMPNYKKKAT
Procedure details: Inhibition of human placental microsomal fraction 17beta-HS2 using [3H]-E2 as substrate in presence of NAD+ measured after 10 mins by HPLC method
Readout kind: pIC50
// returns pIC50 (minus log10 of molar concentration), number only

Find the recorded pIC50 belonging to "Cc1ccccc1N(C)C(=O)c1csc(-c2ccc(O)cc2)n1" and report it.
5.41

---
What value of measured pIC50 is listed for "Cc1cc(F)ccc1N(C)C(=O)c1ccc(-c2ccc(O)cc2)o1" ?
5.77

State the recorded pIC50 for this entry: "Cc1ccc(F)cc1N(C)C(=O)c1ccc(-c2ccc(O)cc2)o1"
5.66

Sample "Cc1cccc(F)c1N(C)C(=O)c1ccc(-c2ccc(O)cc2)o1" — what was its pIC50?
5.49

Fill in: pIC50 of "Cc1ccccc1N(C)C(=O)c1nnc(-c2ccc(O)cc2)o1" is ___
5.21

* * *

Tested system: 17-beta-hydroxysteroid dehydrogenase type 1 (Homo sapiens)
Procedure details: Inhibition of human placental cytosolic fraction 17beta-HSD1 using [3H]-E1 as substrate in presence of NADH measured after 10 mins by HPLC method
Type: subcellular, Placenta, Cytosol
Readout kind: log10(IC50) (log10 of the value in nM)
# log10 transformed; quantity=IC50; unit=nM

Field request: log10(IC50) | item: "Cc1ccccc1N(C)C(=O)c1ccc(-c2ccccc2O)o1"
3.28

Field request: log10(IC50) | item: "Cc1ccccc1N(C)C(=O)c1coc(-c2ccc(O)cc2)n1"
2.40

What value of log10(IC50) has been recorded for this entry: "Cc1ccccc1N(C)C(=O)c1cnc(-c2ccc(O)cc2)s1"
2.78

Would you kindly share the measured log10(IC50) for "Cc1cccc(F)c1N(C)C(=O)c1ccc(-c2ccc(O)cc2)o1" ?
2.49

Entry under review: "Cc1ccccc1N(C)C(=O)c1nnc(-c2ccc(O)cc2)o1" . Reported log10(IC50)?
2.69

Next, consider the following molecule.
Given the molecule "Cc1ccccc1N(C)C(=O)c1csc(-c2ccc(O)cc2)n1" , what is its reported log10(IC50)?
1.53

* * *

Tested system: Steryl-sulfatase (Homo sapiens, UniProt P08842)
Sequence (P08842 whole entry): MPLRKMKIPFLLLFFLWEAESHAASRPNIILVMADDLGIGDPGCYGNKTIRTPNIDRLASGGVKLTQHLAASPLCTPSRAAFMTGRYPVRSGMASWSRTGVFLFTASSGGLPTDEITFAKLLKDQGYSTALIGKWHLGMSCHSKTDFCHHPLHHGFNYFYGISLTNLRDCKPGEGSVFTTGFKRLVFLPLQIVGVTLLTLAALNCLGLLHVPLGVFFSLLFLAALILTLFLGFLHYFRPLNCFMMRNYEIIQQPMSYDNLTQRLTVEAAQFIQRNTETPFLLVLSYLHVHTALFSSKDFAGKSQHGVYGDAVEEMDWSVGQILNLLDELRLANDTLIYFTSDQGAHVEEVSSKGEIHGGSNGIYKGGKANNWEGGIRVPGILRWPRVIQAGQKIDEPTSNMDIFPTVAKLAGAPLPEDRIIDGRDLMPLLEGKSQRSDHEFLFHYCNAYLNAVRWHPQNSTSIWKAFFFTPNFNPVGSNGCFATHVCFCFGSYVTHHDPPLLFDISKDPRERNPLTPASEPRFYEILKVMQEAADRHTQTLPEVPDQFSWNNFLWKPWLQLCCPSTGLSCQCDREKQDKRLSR
Procedure details: Inhibition of STS in human T47D cells using [3H]E1S as substrate measured after 24 hrs by HPLC analysis
Assay type: cell-based
Collected log10 IC50 values appear next to each entry.
Friendly reminder: values = log10 of IC50, unit nM.

Past entries and their recorded results:
Request body: readout log10 IC50, system Steryl-sulfatase (Homo sapiens, UniProt P08842), query "Cc1cc(-c2ccc(C(=O)N(C)c3ccccc3C)o2)ccc1OS(N)(=O)=O" . Return the value.
2.76

Short answer please: log10 IC50, Steryl-sulfatase (Homo sapiens, UniProt P08842), entry "Cc1ccccc1N(C)C(=O)c1nnc(-c2ccc(OS(N)(=O)=O)cc2)o1"
3.04

log10 IC50 of "Cc1ccccc1N(C)C(=O)c1ccc(-c2ccc(OS(N)(=O)=O)c(Cl)c2)o1" on Steryl-sulfatase (Homo sapiens, UniProt P08842)?
1.40

Form field - read-out: log10 IC50; system: Steryl-sulfatase (Homo sapiens, UniProt P08842); submitted item: "Cc1cccc(F)c1N(C)C(=O)c1ccc(-c2ccc(OS(N)(=O)=O)cc2)o1"
2.18

Attention now shifts to the item below.
Request - read-out log10 IC50 | tested on Steryl-sulfatase (Homo sapiens, UniProt P08842) | molecule "Cc1ncccc1N(C)C(=O)c1ccc(-c2ccc(OS(N)(=O)=O)cc2)o1"
2.43

* * *

Procedure details: Metabolic stability in human liver S9 fraction assessed as intrinsic clearance at 1 uM in presence of NADPH measured upto 60 min by LC-MS/MS analysis
Type: ADME, subcellular
Condition parameters: s9, 1 h
Note to self: intrinsic clearance under 20 µL/min/mg means condition met, ties and anything higher get condition not met.

Record "Cc1ccccc1N(C)C(=O)c1ccc(-c2ccc(OS(N)(=O)=O)cc2Cl)o1" : is its intrinsic clearance strictly below 20 µL/min/mg?
condition met

# TODO verify intrinsic clearance < 20 µL/min/mg strictly for this compound: "Cc1ccccc1N(C)C(=O)c1ccc(-c2ccc(OS(N)(=O)=O)cc2F)o1"
condition met

Lab note: confirm whether the reported intrinsic clearance for this compound is below 20 µL/min/mg, equality not counting. compound: "Cc1ccc(F)cc1N(C)C(=O)c1ccc(-c2ccc(OS(N)(=O)=O)cc2)o1"
condition not met

I wonder whether "Cc1cc(F)ccc1N(C)C(=O)c1ccc(-c2ccc(OS(N)(=O)=O)cc2)o1" has intrinsic clearance below 20 µL/min/mg. Can you tell?
condition met

Consider "Cc1ccccc1N(C)C(=O)c1coc(-c2ccc(OS(N)(=O)=O)cc2)n1" . Does its intrinsic clearance lie strictly below 20 µL/min/mg?
condition met

***
Dear reviewer, please state whether "Cc1ccccc1N(C)C(=O)c1ccc(-c2ccc(OS(N)(=O)=O)c(F)c2)o1" has intrinsic clearance strictly beneath 20 µL/min/mg.
condition met

# TODO verify intrinsic clearance < 20 µL/min/mg strictly for this compound: "Cc1ccccc1N(C)C(=O)c1ccc(-c2ccc(OS(N)(=O)=O)cc2)o1"
condition met

Field: below-cutoff. Rule: recorded intrinsic clearance strictly less than 20 µL/min/mg. Subject: "Cc1c(F)cccc1N(C)C(=O)c1ccc(-c2ccc(OS(N)(=O)=O)cc2)o1"
condition not met

Item "Cc1ccccc1N(C)C(=O)c1ccc(-c2ccc(OS(N)(=O)=O)c(Cl)c2)o1" : intrinsic clearance beneath 20 µL/min/mg, strictly?
condition met

Problem: For the compound "Cc1ccccc1N(C)C(=O)c1csc(-c2ccc(OS(N)(=O)=O)cc2)n1" , is intrinsic clearance under 20 µL/min/mg?
condition met

Is intrinsic clearance strictly under 20 µL/min/mg for the entry "O=c1ccc2ccc(O)cc2o1" ?
condition not met
